Recorded pIC50 by entry
assayed.target: TSHR (Homo sapiens)
Sequence (P16473 21-764): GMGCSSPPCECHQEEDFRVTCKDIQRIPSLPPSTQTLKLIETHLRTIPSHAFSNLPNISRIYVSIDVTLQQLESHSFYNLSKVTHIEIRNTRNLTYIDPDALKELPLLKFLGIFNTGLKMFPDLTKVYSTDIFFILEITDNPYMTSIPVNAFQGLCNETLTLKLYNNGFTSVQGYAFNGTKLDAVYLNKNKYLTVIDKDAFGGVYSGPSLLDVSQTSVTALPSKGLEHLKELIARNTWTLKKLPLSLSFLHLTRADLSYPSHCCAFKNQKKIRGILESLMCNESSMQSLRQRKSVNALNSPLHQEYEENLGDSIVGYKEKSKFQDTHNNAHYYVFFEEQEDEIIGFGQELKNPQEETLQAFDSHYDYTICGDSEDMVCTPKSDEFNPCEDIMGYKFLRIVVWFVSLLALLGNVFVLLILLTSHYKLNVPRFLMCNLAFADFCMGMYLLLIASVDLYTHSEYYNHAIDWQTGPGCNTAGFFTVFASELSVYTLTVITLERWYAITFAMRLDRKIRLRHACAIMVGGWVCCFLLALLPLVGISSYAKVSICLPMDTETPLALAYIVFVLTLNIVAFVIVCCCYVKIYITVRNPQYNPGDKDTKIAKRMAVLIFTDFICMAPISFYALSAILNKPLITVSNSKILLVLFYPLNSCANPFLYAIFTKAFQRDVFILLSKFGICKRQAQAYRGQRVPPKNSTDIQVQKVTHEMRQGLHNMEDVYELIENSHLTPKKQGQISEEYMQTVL
method.notes: inhibition of TSH-mediated cAMP response in HEK-EM 293 cells stably expressing TSHR
run.parameters: with EC50 dose of TSH
The read-out pIC50 is expressed as -log10 of concentration in moles per litre.

Can you share its pIC50? I mean this compound: `COC/C=C/c1ccc(-c2nc(SC)nc3sc(C(=O)NC(C)(C)C)c(N)c23)cc1`
5.38

Please examine the following record next.
Can you share its pIC50? I mean this compound: COc1cccc(-c2nc(SC)nc3sc(C(=O)NC(C)(C)C)c(N)c23)c1 [Compound 3, reference compound]
4.96
